- procedure.details: recombinant barcode read abundance after kanamycin selection (control-corrected) (log10(CPM+1)); higher = more efficient recombination; sequences stand for … in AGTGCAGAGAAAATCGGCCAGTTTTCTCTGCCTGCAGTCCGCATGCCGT…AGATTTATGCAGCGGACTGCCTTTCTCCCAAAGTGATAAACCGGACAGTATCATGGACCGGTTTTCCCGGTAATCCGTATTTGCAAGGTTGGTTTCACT; site = the 11-nt target;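 further: IS621 recombinase and bridge RNA in Escherichia coli cells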
readout.label: recombinant barcode read abundance (log10)

[
  {
    "sequence.entry": "GACATCGCTTGGGTTCTAACCTGTTGCCT (site GACATCCCTAG)",
    "val": 0.0326
  },
  {
    "sequence.entry": "GAACGCTCTTGGGTTCTAACCTGTTGCCA (site AGGTCTACTAA)",
    "val": 0.0972
  },
  {
    "sequence.entry": "GGGTCTTCTTGGGTTCTAACCTGTTGCAT (site GGGCCTTCTAT)",
    "val": 0.152
  },
  {
    "sequence.entry": "ACTAGTCCTTGGGTTCTAACCTGTTGCGT (site ACTAGTCCTAT)",
    "val": 0.894
  },
  {
    "sequence.entry": "CAAGATTCTTGGGTTCTAACCTGTTGCCT (site CAAGATTCTAG)",
    "val": 1.69
  },
  {
    "sequence.entry": "GAAAGTCCTTGGGTTCTAACCTGTTGCCT (site GAAAATCCTAG)",
    "val": 0.0602
  },
  {
    "sequence.entry": "CAAGACGCTTGGGTTCTAACCTGTTGCCT (site CTAGACGCTAG)",
    "val": 1.34
  },
  {
    "sequence.entry": "CCACACTCTTGGGTTCTAACCTGTTGCCT (site CGACACTCTAG)",
    "val": 0.0247
  },
  {
    "sequence.entry": "GTACCTACTTGGGTTCTAACCTGTTGCTA (site CGACCTACTTA)",
    "val": 0.0562
  },
  {
    "sequence.entry": "CCGGTATCTTGGGTTCTAACCTGTTGCCT (site CCGATATCTAG)",
    "val": 0.0308
  },
  {
    "sequence.entry": "GCCGCGCCTTGGGTTCTAACCTGTTGCAG (site GCCCCGCCTCT)",
    "val": 0.271
  },
  {
    "sequence.entry": "CACACGCCTTGGGTTCTAACCTGTTGCCT (site CTCACGCCTAA)",
    "val": 0.0913
  },
  {
    "sequence.entry": "AGTACGTCTTGGGTTCTAACCTGTTGCTT (site AGTACGTCTAA)",
    "val": 0.201
  },
  {
    "sequence.entry": "GAGGCTCCTTGGGTTCTAACCTGTTGCGT (site GAGGCTCCTAC)",
    "val": 2.97
  },
  {
    "sequence.entry": "TGGGTCACTTGGGTTCTAACCTGTTGCTA (site TGGGTCACTTA)",
    "val": 2.07
  },
  {
    "sequence.entry": "TGTCAAGCTTGGGTTCTAACCTGTTGCCT (site TGTCAATCTAG)",
    "val": 0.295
  },
  {
    "sequence.entry": "ATCGGATCTTGGGTTCTAACCTGTTGCCT (site ATCGGACCTAG)",
    "val": 0.0656
  },
  {
    "sequence.entry": "TACTAACCTTGGGTTCTAACCTGTTGCCT (site CATTAACCTAG)",
    "val": 0.0235
  },
  {
    "sequence.entry": "CTACTTGCTTGGGTTCTAACCTGTTGCAA (site CTATTTGCTTT)",
    "val": 0.592
  },
  {
    "sequence.entry": "CCAGGAGCTTGGGTTCTAACCTGTTGCCT (site CCAGTAGCTAG)",
    "val": 0.109
  },
  {
    "sequence.entry": "CGGCATACTTGGGTTCTAACCTGTTGCCT (site CAGCATACTAG)",
    "val": 0.0864
  },
  {
    "sequence.entry": "CTAAGGGCTTGGGTTCTAACCTGTTGCCA (site CTAAGCGCTTG)",
    "val": 0.0306
  },
  {
    "sequence.entry": "ACGACTACTTGGGTTCTAACCTGTTGCCT (site ACGACTCCTAG)",
    "val": 0.00963
  },
  {
    "sequence.entry": "TGCGTCACTTGGGTTCTAACCTGTTGCGT (site TGCGTTCCTAC)",
    "val": 0.0906
  },
  {
    "sequence.entry": "CGTCTACCTTGGGTTCTAACCTGTTGCCT (site AGTCTACCTAG)",
    "val": 0.0669
  },
  {
    "sequence.entry": "AGTCTCGCTTGGGTTCTAACCTGTTGCGG (site AGTCTCGCTCC)",
    "val": 0.345
  },
  {
    "sequence.entry": "ACGACCGCTTGGGTTCTAACCTGTTGCCT (site ACGACCGCTAG)",
    "val": 0.804
  },
  {
    "sequence.entry": "CGGTCGCCTTGGGTTCTAACCTGTTGCAT (site CGGTTGCCTAC)",
    "val": 0.153
  },
  {
    "sequence.entry": "CACCAGCCTTGGGTTCTAACCTGTTGCAT (site AGGTCCGCTTA)",
    "val": 0.167
  },
  {
    "sequence.entry": "AAGGCCTCTTGGGTTCTAACCTGTTGCTT (site AAGACCTCTAA)",
    "val": 0.775
  },
  {
    "sequence.entry": "ATGGCCTCTTGGGTTCTAACCTGTTGCTA (site ATGGCCTCTTA)",
    "val": 2.5
  },
  {
    "sequence.entry": "GTAAGTACTTGGGTTCTAACCTGTTGCTT (site GTAAGTACTAA)",
    "val": 0.221
  },
  {
    "sequence.entry": "ATGAACACTTGGGTTCTAACCTGTTGCTG (site ATGAACACTCA)",
    "val": 1.95
  },
  {
    "sequence.entry": "CTACGCACTTGGGTTCTAACCTGTTGCTG (site CTACGAACTCA)",
    "val": 0
  },
  {
    "sequence.entry": "CTTAGGGCTTGGGTTCTAACCTGTTGCGG (site CTAAGGGCTCC)",
    "val": 2.14
  },
  {
    "sequence.entry": "CGCTAGACTTGGGTTCTAACCTGTTGCCT (site CGCTCGACTAG)",
    "val": 0.0159
  },
  {
    "sequence.entry": "GCCGACACTTGGGTTCTAACCTGTTGCCT (site GCCGAGACTAG)",
    "val": 0.284
  },
  {
    "sequence.entry": "ACCTGGGCTTGGGTTCTAACCTGTTGCCT (site ATCTGGGCTAG)",
    "val": 0.12
  },
  {
    "sequence.entry": "GGGGCACCTTGGGTTCTAACCTGTTGCTA (site GGGGCACCTTA)",
    "val": 2.35
  },
  {
    "sequence.entry": "TAGTACCCTTGGGTTCTAACCTGTTGCAT (site TAGTACCCTCT)",
    "val": 0.0976
  },
  {
    "sequence.entry": "TTCAGGGCTTGGGTTCTAACCTGTTGCAG (site AGAGCCTCTTA)",
    "val": 0.111
  },
  {
    "sequence.entry": "TGTAGTACTTGGGTTCTAACCTGTTGCCT (site TGTAGTACTAG)",
    "val": 0.229
  }
]

These entries and their values trace back to the supplement of paper PMC11208160.
